Settings: human gut metagenome, 24 h, 2 µM; also: call rule not given here
parameter: Bacterial Biotransformation

Worked examples follow.
>  <compound>
Cc1nc2n(c(=O)c1CCN1CCC(c3noc4cc(F)ccc34)CC1)CCCC2

>  <Bacterial Biotransformation>
Compound metabolized

$$$$
>  <compound>
Cc1nc2n(c(=O)c1CCN1CCC(c3noc4cc(F)ccc34)CC1)CCCC2O (stereo not drawn)

>  <Bacterial Biotransformation>
Compound metabolized

$$$$
>  <compound>
CNC(=C[N+](=O)[O-])NCCSCc1csc(CN(C)C)n1

>  <Bacterial Biotransformation>
Compound NOT metabolized

$$$$
>  <compound>
O=C(NCc1ccccc1)OCCO [BURAMATE]

>  <Bacterial Biotransformation>
Compound NOT metabolized

$$$$
>  <compound>
COC(=O)C1=C(C)NC(C)=C(C(=O)OC(C)C)C1c1cccc2nonc12 (stereo not drawn)

>  <Bacterial Biotransformation>
Compound metabolized

$$$$
>  <compound>
O=c1[nH]c2ccccc2n1CCCN1CCC(n2c(=O)[nH]c3cc(Cl)ccc32)CC1

>  <Bacterial Biotransformation>
Compound NOT metabolized

$$$$
>  <compound>
Cc1ccc(S(=O)(=O)NC(=O)NN2CCCCCC2)cc1 [TOLAZAMIDE]

>  <Bacterial Biotransformation>
Compound metabolized

$$$$
>  <compound>
CCOC(=O)[C@H](CCc1ccccc1)N[C@@H](C)C(=O)N1[C@H](C(=O)O)C[C@@H]2CCC[C@@H]21

>  <Bacterial Biotransformation>
Compound metabolized

$$$$
>  <compound>
O=C(CCCN1CCC(O)(c2ccc(Cl)cc2)CC1)c1ccc(F)cc1

>  <Bacterial Biotransformation>
Compound metabolized

$$$$
>  <compound>
COc1cc2nc(N(C)CCCNC(=O)C3CCCO3)nc(N)c2cc1OC (stereo not drawn)

>  <Bacterial Biotransformation>
Compound metabolized

$$$$

Please state Bacterial Biotransformation for every compound in the list that follows.
1. COc1c(C)c2c(c(O)c1C/C=C(\C)CCC(=O)OCCN1CCOCC1)C(=O)OC2 [MYCOPHENOLATE MOFETIL]
2. CNC(=C[N+](=O)[O-])NCCSCc1ccc(CN(C)C)o1
3. CNS(=O)(=O)Cc1ccc2[nH]cc(CCN(C)C)c2c1.O=C(O)CCC(=O)O [SUMATRIPTAN SUCCINATE]
4. CCN(CC)CCNC(C(=O)OCCC(C)C)c1ccccc1.Cl.Cl (stereo not drawn)
5. CN1C(=O)CC(C)(c2ccccc2)C1=O (stereo not drawn) [METHSUXIMIDE]
6. COc1ccccc1N1CCN(CC(O)COc2cccc3ccccc23)CC1 (stereo not drawn)

Output:
1: Compound metabolized; 2: Compound NOT metabolized; 3: Compound metabolized; 4: Compound metabolized; 5: Compound NOT metabolized; 6: Compound NOT metabolized

Please state Bacterial Biotransformation for every compound in the list that follows.
1. CC(C)(Oc1ccc(CCNC(=O)c2ccc(Cl)cc2)cc1)C(=O)O [BEZAFIBRATE]
2. CC(=O)OCC(=O)[C@@]1(O)[C@@H](C)C[C@H]2[C@@H]3CCC4=CC(=O)C=C[C@]4(C)[C@@]3(F)[C@@H](O)C[C@@]21C [BETAMETHASONE ACETATE]

Output:
Compound metabolized
Compound metabolized

* * *

Assay: The drug is tested on WLS-310 corresponding to human gut metagenome with ENA study accession number: PRJEB37062 and ENA sample accession number: ERS12561785 for biotransformation under anaerobic condition. The drug concentrations were measured over 9 timepoints collected between 0 and 24 hours of incubation by liquid-chromatography-coupled mass spectrometry (LC–MS)
Conditions: 2 µM
parameter: Bacterial Biotransformation

Worked examples follow.
>  <compound>
CCN1CCCC1CNC(=O)c1cc(S(N)(=O)=O)ccc1OC (stereo not drawn) [SULPIRIDE]

>  <Bacterial Biotransformation>
Compound metabolized

$$$$
>  <compound>
NC12CC3CC(CC(C3)C1)C2

>  <Bacterial Biotransformation>
Compound NOT metabolized

$$$$
>  <compound>
CO[C@]12C[C@@H](COC(=O)c3cncc(Br)c3)CN(C)[C@@H]1Cc1cn(C)c3cccc2c13

>  <Bacterial Biotransformation>
Compound NOT metabolized

$$$$
>  <compound>
CCCC1O[C@@H]2C[C@H]3[C@@H]4CCC5=CC(=O)C=C[C@]5(C)[C@H]4[C@@H](O)C[C@]3(C)[C@]2(C(=O)CO)O1 (stereo partly drawn) [BUDESONIDE]

>  <Bacterial Biotransformation>
Compound metabolized

$$$$
>  <compound>
COC(=O)Nc1nc2ccc(C(=O)c3ccccc3)cc2[nH]1

>  <Bacterial Biotransformation>
Compound metabolized

$$$$

Please state Bacterial Biotransformation for every compound in the list that follows.
1. OC(CCN1CCCCC1)(c1ccccc1)C1CCCCC1 (stereo not drawn)
2. C=CCc1ccccc1OCC(O)CNC(C)C (stereo not drawn)
3. CS(=O)(=O)O.O.O.O.O=C1Cc2cc(CCN3CCN(c4nsc5ccccc45)CC3)c(Cl)cc2N1 [ZIPRASIDONE MESYLATE]
4. CNC(=C[N+](=O)[O-])NCCSCc1ccc(CN(C)C)o1
5. CC(C)NCC(O)c1ccc(NS(C)(=O)=O)cc1 (stereo not drawn)

Output:
1. Compound metabolized
2. Compound NOT metabolized
3. Compound metabolized
4. Compound metabolized
5. Compound NOT metabolized
